Sourced from ChEMBL document CHEMBL3044670

# Test system: Bacillus subtilis
# TEST METHOD NOTES: Antibacterial activity against Bacillus subtilis ATCC 6633 at 140 ug/disk after 18 to 24 hr by disk diffusion method
# Format: functional
# PARTICULARS: read-out: DIZ
Outcome label depends on zone of inhibition at 140 µg/disc relative to 9 mm: at/above gives true (1), below gives false (0).

MOLECULE: O=S(=O)(NCCO)c1ccccc1
CAT: false (0)
--
MOLECULE: CN(/N=C/c1c(O)ccc2ccccc12)S(=O)(=O)c1ccccc1
CAT: true (1)
--
MOLECULE: NCC(O)CNS(=O)(=O)c1ccccc1 (stereo unspecified)
CAT: false (0)
--
MOLECULE: CN(N)S(=O)(=O)c1ccccc1
CAT: true (1)
--
MOLECULE: CN(/N=C/c1cccs1)S(=O)(=O)c1ccccc1
CAT: true (1)
